system: Es-2; assay: Primary qHTS to identify gynecologic anti-cancer compounds using libraries of approved drugs and bioactive compounds (AID 1345084); settings: Gynecologic cancer cell panel viability, ATPlite luminescence, 48 h; series mostly up to 57.5 µM; note: nearly all actives have a fitted effect of over 55% in size
Results filed as inconclusive are left out. The source made the active and inactive calls. Calls come from the whole dose curve; as a rule, active = well fitted cell-killing curve with a large enough effect; inconclusive = small, poorly fitted or top-dose-only effect, or effect the other way; inactive = flat fitted curve, though single readings scatter.
reported-property: outcome

CN[C@H](CC(C)C)C(=O)N[C@H]1C(=O)N[C@@H](CC(N)=O)C(=O)N[C@H]2C(=O)N[C@H]3C(=O)N[C@H](C(=O)N[C@H](C(=O)O)c4cc(O)cc(O)c4-c4cc3ccc4O)[C@H](O[C@H]3C[C@](C)(N)[C@@H](O)[C@H](C)O3)c3ccc(c(Cl)c3)Oc3cc2cc(c3O[C@@H]2O[C@H](CO)[C@@H](O)[C@H](O)[C@H]2O[C@H]2C[C@](C)(NCc3ccc(-c4ccc(Cl)cc4)cc3)[C@@H](O)[C@H](C)O2)Oc2ccc(cc2Cl)[C@H]1O; inactive
O=C1CC2(CCCC2)[C@H](O)C(=O)N1CCCCN1CCN(c2ncccn2)CC1; inactive
O=C(Nc1ccc(-c2ccncc2)cc1)N[C@H](CO)c1ccccc1; inactive
CC(C)(O)/C=C/CC(C)(O)C1C(O)CC2(C)C3CCC4C(C)(C)C(=O)CCC4(C)C3CCC12C (configuration not stated); inactive
Cc1csc(NC(=O)c2ccc(COc3cccc(Cl)c3)o2)n1; inactive
C=C1OC2CC(C(=O)O)C=CC2NC1=O (configuration not stated); inactive

Now turn to the next compound.
Noted outcome for CC1=C(COC2OC(CO)C(O)C(O)C2O)C(C(CO)C(=O)O)CC1 (configuration not stated) , tested on Es-2: inactive

---

test system: CAOV3; assay: Primary qHTS to identify gynecologic anti-cancer compounds using libraries of approved drugs and bioactive compounds (AID 1345084); conditions: Gynecologic cancer cell panel viability, ATPlite luminescence, 48 h; series mostly up to 57.5 µM; note: nearly all actives have a fitted effect of over 55% in size
Inconclusive results are not listed. The source made the active and inactive calls. The call rests on the fitted dose curve; in most records, active means well fitted cell-killing curve with a large enough effect; inconclusive means small, poorly fitted or top-dose-only effect, or effect the other way; inactive means flat fitted curve, though single readings scatter. Where a SMILES comes first, the peptide text is derived from it. [ ]: non-standard residue; d: D form. ξ: configuration not given here. ξPhe(βξ-Me) = CC(c1ccccc1)C(N)C(=O)O; GABA = NCCCC(=O)O
Outcome (select one): 1.0 = active, 0.0 = inactive

Example entries and their recorded answers appear below.
Nc1ccccc1N; 1.0
CC(CO)C1CCC2(C)CC3C(CO)CC(O)C3C(C)(O)C/C=C/12 (configuration not stated); 0.0
C=C(C(=O)O)[C@@H]1CC[C@@]2(C)CC[C@H](O)[C@@]2(C(C)=O)C1; 0.0

Ask: Recorded call for CC1(C)CC2=C3C=CC4C5(C)CCC(O)C(C)(C)C5CCC4(C)C3(C)CCC2(C)C(O)C1 (configuration not stated) ?
Reply: 0.0

Ask: Recorded call for `COc1ncc(Nc2ncc([C@@H](C)N3CCN(S(C)(=O)=O)CC3)cc2-c2nc(C)nc(N)n2)cc1F` ?
Reply: 0.0

Ask: Recorded call for CC1NC(=O)CCCNC(=O)C(Cc2c[nH]c3ccccc23)NC(=O)C(C)NC(=O)C(C(C)C)NC(=O)C(C(C)c2ccccc2)NC(=O)C(C(C)C)NC1=O (stereo not drawn) (cyclo([GABA]AV[ξPhe(βξ-Me)]VAW); configuration not given here) ?
Reply: 0.0

Ask: Recorded call for `CC1(C)C[C@H](O)C[C@@]2(C)OC(=O)C=C12` ?
Reply: 0.0

Ask: Recorded call for COc1c2c(c(C)c3c1C(=O)OC3)O[C@@]1(C)CC(O)C(C(C)(C)O)[C@](C)(CCC(=O)O)[C@H]1C2 (some centres not stated) ?
Reply: 0.0

Ask: Recorded call for `C[C@H]1CC[C@@H]2N(C1)C[C@@H]1[C@H]([C@@H](O)[C@H](O)[C@]3(O)[C@H]1C[C@@]14OC5(O)[C@@H](C[C@@H](O)[C@@H]31)[C@]4(C)CC[C@@H]5O)[C@]2(C)O` ?
Reply: 0.0

Ask: Recorded call for `OC[C@H]1O[C@@H](Oc2ccccc2)[C@H](O)[C@@H](O)[C@@H]1O` ?
Reply: 0.0

Ask: Recorded call for `COc1ccc(-c2c(-c3cc(C(=O)O)ccn3)ncn2C)cc1` ?
Reply: 0.0

Ask: Recorded call for O=C(C(c1ccccc1)c1ccccc1)N1CCN(CC(O)COc2cccc3ncccc23)CC1 (configuration not stated) ?
Reply: 0.0

---

System: KB-3-1
Assay: Cytotoxic Profiling of Annotated Libraries Using Quantitative High-Throughput Screening (AID 1296008); note: nearly all actives have a fitted effect of over 60% in size; for max response: % is set by controls: 0 for no effect and ±100 for the full control effect
Details: Five cell lines viability, CellTiter-Glo ATP luminescence, 48-72 h; active compounds read low
Protocol: Cell-based phenotypic screening is a commonly used approach to discover biological pathways, novel drug targets, chemical probes and high-quality hit-to-lead molecules. […] A pintool (Kalypsys) was used to transfer 23 nL of compound solution to the 1536-well assay plates. […] Plates were left at room temperature for 10 min before imaging the ATP-coupled luminescence using a ViewLux microplate imager (PerkinElmer, Waltham, MA).
Records with an inconclusive call do not appear. Calls of active or inactive are those of the source. The call rests on the fitted dose curve; in most records, active means well fitted inhibition curve with a large enough effect; inconclusive means small, poorly fitted or top-dose-only effect; inactive means flat fitted curve, though single readings scatter.
reported-property: max response

Noted max response for `COC(=O)c1cc(OC)c(O[C@@H]2O[C@@H](C)[C@H](O)[C@@H](O)[C@H]2O)c(OC)c1` , tested on KB-3-1: 4.85% (inactive)

Noted max response for C[C@@H]1CC[C@]2(C(=O)O)CC[C@]3(C)C(=CCC4[C@@]5(C)CC[C@H](O)C(C)(C)C5C(O)C[C@]43C)[C@@H]2[C@]1(C)O (some centres undefined) , tested on KB-3-1: 7.38% (inactive)

Noted max response for COC(=O)/C=C/C12COC(C)(C)C1C(O)C(OC(C)=O)C1(C)C2CCC2(C)C(c3ccoc3)OC(=O)C3OC321 (centres undefined) , tested on KB-3-1: -5.77% (inactive)

Noted max response for `Cc1cccc(S(=O)(=O)N2CCC[C@@H]2CCN2CCC(C)CC2)c1` , tested on KB-3-1: -9.32% (inactive)

---

Tested on: HEK293
Assay: Cytotoxic Profiling of Annotated Libraries Using Quantitative High-Throughput Screening (AID 1296008); note: nearly all actives have a fitted effect of over 60% in size; note: potency is the fitted concentration of half-maximal effect
Details: Five cell lines viability, CellTiter-Glo ATP luminescence, 48-72 h
Experimental: Cell-based phenotypic screening is a commonly used approach to discover biological pathways, novel drug targets, chemical probes and high-quality hit-to-lead molecules. […] A pintool (Kalypsys) was used to transfer 23 nL of compound solution to the 1536-well assay plates. […] Plates were left at room temperature for 10 min before imaging the ATP-coupled luminescence using a ViewLux microplate imager (PerkinElmer, Waltham, MA).
Inconclusive results are not listed. Active and inactive are the calls of the source. Calls follow the shape of the dose curve; as a rule, active = well fitted inhibition curve with a large enough effect; inconclusive = small, poorly fitted or top-dose-only effect; inactive = flat fitted curve, though single readings scatter.
reported-property: Potency

Reference set (5 entries):
O=C(NCc1ccc(S(=O)(=O)c2cc(F)cc(F)c2)cc1)c1ccc2nccn2c1; 5.2 nM (active)
Cc1ccc(S(=O)(=O)c2ccc([N+](=O)[O-])o2)cc1; 1030 nM (active)
CCNC(=O)Nc1ccc(-c2nc3c(c(N4CCOC[C@@H]4C)n2)CCN(c2ncccn2)C3)cc1; 184 nM (active)
COc1cc(N2CCOCC2)ccc1Nc1ncc(Cl)c(Nc2ccccc2NS(C)(=O)=O)n1; 1840 nM (active)
COc1ccc(C[C@H](N)C(=O)N[C@@H]2[C@H](O)[C@H](n3cnc4c(N(C)C)ncnc43)O[C@@H]2CO)cc1; 1160 nM (active)

So, `Cn1nnc(-c2ccc(-c3ccc(N4C[C@H](CO)OC4=O)cc3F)cn2)n1` ? Its Potency was 4110 nM (active)

So, `C#CCN(Cc1cc2c(=O)[nH]c(C)nc2cc1Br)c1ccc(C(=O)NCc2cccnc2)cc1` ? Its Potency was 4.6 nM (active)

So, `CN(C)CCCCC(=O)Nc1ccc(NC(=S)NC(=O)c2ccc(C(C)(C)C)cc2)cc1` ? Its Potency was 6510 nM (active)

---

Listing of recorded activity change, negative = thiol reactive by entry.
experiment: Primary fluorescence-based thiol-reactive (MSTI) qHTS assay for identification of artifact compounds. (AID 1845221); conditions: MSTI thiol-reactivity probe, 1 h; series mostly up to 53.8 µM;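 note: thiol-reactive compounds lower the probe fluorescence signal; nearly all actives have a fitted effect of over 65% in size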
Records with an inconclusive call do not appear. Calls of active or inactive are those of the source. The call rests on the fitted dose curve; in most records, active means well fitted inhibition curve with a large enough effect; inconclusive means small, poorly fitted or top-dose-only effect; inactive means no such curve, though single readings can be large or run the other way.

CC1(C)CCC2(C(=O)OC3OCC(O)C(O)C3O)CCC3(C)C(=CCC4C5(C)CC(O)C(OC6OC(COC7OCC(O)C(O)C7O)C(O)C(O)C6O)C(C)(C)C5CCC43C)C2C1 (stereo unspecified); -15.2% [at 11.5 µM] (inactive)

So, CC(CCC1(O)OC2CC3C4CCC5CC(O[C@@H]6O[C@H](CO)[C@@H](O)[C@H](O)[C@H]6O[C@@H]6O[C@@H](C)[C@H](O)[C@@H](O)[C@H]6O)C(O)CC5(C)C4CCC3(C)C2C1C)CO[C@@H]1O[C@H](CO)[C@@H](O)[C@H](O)[C@H]1O (stereo partly specified) ? Its activity change, negative = thiol reactive was 141% [at 11.5 µM] (inactive)

So, C[C@@H]1O[C@@H](O[C@H]2[C@H](OC(=O)[C@]34CCC(C)(C)C[C@H]3C3=CCC5[C@@]6(C)C[C@H](O)[C@H](O[C@@H]7O[C@H](CO)[C@@H](O)[C@H](O)[C@H]7O)[C@@](C)(CO)C6[C@H](O)C[C@@]5(C)[C@]3(C)C[C@H]4O)OC[C@H](O)[C@@H]2O)[C@H](O)[C@H](O)[C@H]1O[C@@H]1OC[C@@H](O)[C@H](O[C@H]2OC[C@](O)(CO)[C@H]2O)[C@H]1O (stereo partly specified) ? Its activity change, negative = thiol reactive was 482% [at 11.5 µM] (inactive)

So, C[C@@H]1O[C@@H](O[C@H]2[C@H](O[C@H]3[C@H](O)[C@@H](C(=O)O)O[C@@H](O[C@H]4CC[C@@]5(C)C(CC[C@]6(C)C5CC[C@]57OC[C@@]8(CCC(C)(C)CC85)[C@H](O)C[C@]76C)C4(C)C)[C@@H]3O[C@@H]3O[C@H](CO)[C@@H](O[C@@H]4OC[C@@H](O)[C@H](O)[C@H]4O)[C@H](O)[C@H]3O)O[C@H](CO)[C@H](O)[C@@H]2O)[C@H](O)[C@H](O)[C@H]1O (stereo partly specified) ? Its activity change, negative = thiol reactive was 330% [at 11.5 µM] (inactive)

So, C[C@@H]1O[C@@H](O[C@H]2[C@H](OC(=O)[C@]34CCC(C)(C)C[C@H]3C3=CCC5[C@@]6(C)CC[C@H](O[C@@H]7O[C@H](C(=O)O)[C@@H](O)[C@H](O)[C@H]7O[C@@H]7O[C@H](CO)[C@H](O)[C@H](O)[C@H]7O)[C@@](C)(C=O)C6CC[C@@]5(C)[C@]3(C)C[C@H]4O)O[C@H](C)[C@H](O[C@@H]3O[C@H](C)[C@H](O)[C@H](O)[C@H]3O)[C@@H]2O)[C@H](O)[C@H](O)[C@H]1O[C@@H]1OC[C@@H](O)[C@H](O[C@@H]2O[C@H](CO)[C@@H](O)[C@H](O)[C@H]2O)[C@H]1O (stereo partly specified) ? Its activity change, negative = thiol reactive was 292% [at 6.41 µM] (inactive)

So, C[C@@H]1O[C@@H](O[C@H]2[C@H](O)[C@@H](O[C@@H]3O[C@H](CO)[C@@H](O)[C@H](O[C@@H]4O[C@H](CO)[C@@H](O)[C@H](O)[C@H]4O)[C@H]3O)[C@H](O[C@H]3CC[C@@]4(C)C(=CC[C@@H]5C4CC[C@@]4(C)C5C[C@@H]5OC6(CC[C@@](C)(CO[C@@H]7O[C@H](CO)[C@@H](O)[C@H](O)[C@H]7O)O6)[C@@H](C)[C@@H]54)C3)O[C@@H]2CO)[C@H](O)[C@H](O)[C@H]1O (stereo partly specified) ? Its activity change, negative = thiol reactive was 201% [at 11.5 µM] (inactive)
